# Study system: T1, EsCas13d, nuclease-dead (Eubacterium siraeum, UniProt B0MS50, R295A;H300A;R849A;H854A)
# T1 sequence: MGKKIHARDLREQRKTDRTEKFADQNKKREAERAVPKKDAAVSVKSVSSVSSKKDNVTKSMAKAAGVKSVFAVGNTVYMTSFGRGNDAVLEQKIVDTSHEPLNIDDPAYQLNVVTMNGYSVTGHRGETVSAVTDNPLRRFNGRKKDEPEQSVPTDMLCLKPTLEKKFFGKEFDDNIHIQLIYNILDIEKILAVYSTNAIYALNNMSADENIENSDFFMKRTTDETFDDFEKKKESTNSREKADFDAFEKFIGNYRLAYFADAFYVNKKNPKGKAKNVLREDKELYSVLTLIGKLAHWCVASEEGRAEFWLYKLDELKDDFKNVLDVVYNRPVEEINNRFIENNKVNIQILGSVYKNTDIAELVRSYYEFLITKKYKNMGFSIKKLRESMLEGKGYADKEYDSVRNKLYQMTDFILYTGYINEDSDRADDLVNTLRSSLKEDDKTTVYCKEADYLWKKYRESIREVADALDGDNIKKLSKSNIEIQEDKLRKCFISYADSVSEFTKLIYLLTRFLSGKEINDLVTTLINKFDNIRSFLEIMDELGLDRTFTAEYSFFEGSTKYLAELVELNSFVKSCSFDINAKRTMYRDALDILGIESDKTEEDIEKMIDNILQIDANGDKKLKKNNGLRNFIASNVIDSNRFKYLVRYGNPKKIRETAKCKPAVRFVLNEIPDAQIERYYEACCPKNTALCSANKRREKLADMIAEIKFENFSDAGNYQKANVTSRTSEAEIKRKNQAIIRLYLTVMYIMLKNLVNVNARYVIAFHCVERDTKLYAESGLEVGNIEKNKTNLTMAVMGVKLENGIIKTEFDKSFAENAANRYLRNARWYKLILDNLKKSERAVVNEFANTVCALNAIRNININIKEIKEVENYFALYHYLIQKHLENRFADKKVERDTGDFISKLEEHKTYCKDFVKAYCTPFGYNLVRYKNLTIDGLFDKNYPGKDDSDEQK
# Experiment notes: crRNA (strand 1, pre-loaded); Mg2+; 40 mM Tris-HCl pH 7.5, 150 mM NaCl, 6 mM MgCl2, 1 mM DTT, 0.1% Tween-20, 0.2 mg/ml BSA; 25 C; 10 min per concentration, then washed
# Condition details: tags: His6-TwinStrep-SUMO cleaved; N-terminal SNAP kept (SNAP-Surface 488); label: 3' end held by stalled T7 RNA polymerase
Listing of recorded Kd by entry.
// note: answer is a bare numeric in nM

// below: answered binders
target 1 G5U,U10G (mixed) RNA 1: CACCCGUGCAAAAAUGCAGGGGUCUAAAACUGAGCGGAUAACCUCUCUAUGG RNA 2: GGGAAUGGAUCCACAUCUACGAAUUCGUACCAUAGAGAGGUGAUCCUCUCACCGAGAUCGGAAGAGCACACGU = 57
target 1 insG 3' of 9,insU 3' of 4 (mixed) RNA 1: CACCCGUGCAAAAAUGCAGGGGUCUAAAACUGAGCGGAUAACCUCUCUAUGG RNA 2: GGGAAUGGAUCCACAUCUACGAAUUCGUACCAUAGAGAGGUUAGUCCGCUUCACCGAGAUCGGAAGAGCACACGU = 12.2

Which Kd reading was recorded for the binder target 2 MT 5'PFS UUG 3'PFS ACA (mixed) RNA 1: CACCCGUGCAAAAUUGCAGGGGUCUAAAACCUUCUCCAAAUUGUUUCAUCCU RNA 2: GGGAAUGGAUCCACAUCUACGAAUUCUUGAGGAUGAAACAAUUUGGAGAAGACAAGAUCGGAAGAGCACACGU ?
15

Recorded Kd of target 1 MT 5'PFS CUA 3'PFS UCG (mixed) RNA 1: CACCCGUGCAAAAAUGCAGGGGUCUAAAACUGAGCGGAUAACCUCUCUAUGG RNA 2: GGGAAUGGAUCCACAUCUACGAAUUCCUACCAUAGAGAGGUUAUCCGCUCAUCGAGAUCGGAAGAGCACACGU , please.
6

Any idea what its Kd is? The binder is target 1 A18C (mixed) RNA 1: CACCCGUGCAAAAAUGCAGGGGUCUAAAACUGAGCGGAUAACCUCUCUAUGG RNA 2: GGGAAUGGAUCCACAUCUACGAAUUCGUACCAUCGAGAGGUUAUCCGCUCACCGAGAUCGGAAGAGCACACGU
51.3

What does the data say about its Kd? Entry: target 3 insC 3' of 7,insA 3' of 3 (mixed) RNA 1: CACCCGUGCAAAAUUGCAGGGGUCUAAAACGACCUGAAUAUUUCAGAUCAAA RNA 2: GGGAAUGGAUCCACAUCUACGAAUUCGUUUUUGAUCUGAAAUAUUCCAGGAUCUGCAGAUCGGAAGAGCACACGU
68

State the recorded Kd for this entry: target 1 C2A,G15C (mixed) RNA 1: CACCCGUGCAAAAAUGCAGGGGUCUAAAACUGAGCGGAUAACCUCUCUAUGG RNA 2: GGGAAUGGAUCCACAUCUACGAAUUCGUACCAUAGACAGGUUAUCCGCUAACCGAGAUCGGAAGAGCACACGU
40

Values were extracted from paper PMC10786891.
